In this section we review reported Lck Activation above control, 1 µM values for a set of binders.
- measured-on: Lymphocyte-specific protein tyrosine kinase (Lck), enzyme in cell-free kinase assay (human, UniProt P06239 1-509, limits assumed)
- Sequence (P06239 whole entry): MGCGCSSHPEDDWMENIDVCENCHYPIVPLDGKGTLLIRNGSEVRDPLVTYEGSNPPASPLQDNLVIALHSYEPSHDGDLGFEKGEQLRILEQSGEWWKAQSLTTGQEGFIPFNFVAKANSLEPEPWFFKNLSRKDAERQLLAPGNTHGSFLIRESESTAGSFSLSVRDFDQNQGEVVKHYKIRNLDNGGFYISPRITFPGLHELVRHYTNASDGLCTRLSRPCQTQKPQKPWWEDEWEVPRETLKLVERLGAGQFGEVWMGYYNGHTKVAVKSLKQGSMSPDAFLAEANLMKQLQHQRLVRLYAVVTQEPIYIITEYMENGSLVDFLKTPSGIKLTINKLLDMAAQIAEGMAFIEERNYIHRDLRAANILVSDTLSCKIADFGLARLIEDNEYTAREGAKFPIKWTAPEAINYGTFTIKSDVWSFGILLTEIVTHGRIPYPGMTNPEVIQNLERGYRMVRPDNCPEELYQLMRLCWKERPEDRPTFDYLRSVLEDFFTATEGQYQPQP
- experimental-protocol: cell-based or functional assay
No end group written: not given here. 2Adod = 2-amino-dodecanoic acid; 2Adec = 2-amino-decanoic acid; 12Ado = NCCCCCCCCCCCC(=O)O
The figure you give is taken to be in %; do not add the unit.

Examples with their reported Lck Activation above control, 1 µM follow.
RSKAKNPLYR-{2Adec-2Adec-2Adec-2Adec-NH2} [RSKAKNPLYR-(2-Adec)4-NH2] :: 127
DSEAENPLYD-{2Adod-2Adod-2Adod-2Adod-NH2} [DSEAENPLYD-(2Adod)4-NH2] :: 0
RSKAKNPLYR-{12Ado-12Ado-12Ado-12Ado-NH2} [RSKAKNPLYR-(12-Adod)4-NH2] :: 96

Reported Lck Activation above control, 1 µM for RSKAKNPLYR-{2Adod-2Adod-2Adod-2Adod-NH2} [RSKAKNPLYR-(2Adod)4-NH2] : what is it?
499
